FYI, the data here is from the supplement of paper PMC10307832.

# System: NCI-H1793
# PROTOCOL_DETAILS: relative viability (nuclei count vs DMSO), 5 days (fraction); higher = more cells survive
# STUDY_CONDITIONS: first compound 0.6325 µM
ASSAY_METRIC: relative viability

Examples with answers:
CN1CCN(CCOc2cc(OC3CCOCC3)c3c(Nc4c(Cl)ccc5c4OCO5)ncnc3c2)CC1 [Saracatinib] + CC(=O)Nc1cccc(-n2c(=O)n(C3CC3)c(=O)c3c(Nc4ccc(I)cc4F)n(C)c(=O)c(C)c32)c1 [Trametinib] (partner 0.02 µM)    0.513
Cc1csc(=NC2CCCCC2)n1/N=C/c1ccc(O)c(O)c1O [MIM1] + CS(=O)(=O)N1CCN(Cc2cc3nc(-c4cccc5[nH]ncc45)nc(N4CCOCC4)c3s2)CC1 [Pictilisib] (partner 1 µM)    0.314
CN1CCN(CCOc2cc(OC3CCOCC3)c3c(Nc4c(Cl)ccc5c4OCO5)ncnc3c2)CC1 [Saracatinib] + CC(=O)c1c(C)c2cnc(Nc3ccc(N4CCNCC4)cn3)nc2n(C2CCCC2)c1=O [Palbociclib] (partner 0.5 µM)    0.299
CN1CCN(CCOc2cc(OC3CCOCC3)c3c(Nc4c(Cl)ccc5c4OCO5)ncnc3c2)CC1 [Saracatinib] + CS(=O)(=O)CCNCc1ccc(-c2ccc3ncnc(Nc4ccc(OCc5cccc(F)c5)c(Cl)c4)c3c2)o1 [Lapatinib] (partner 2 µM)    0.974

Let us examine a further case.
The compound listed as Cc1csc(=NC2CCCCC2)n1/N=C/c1ccc(O)c(O)c1O [MIM1] + CS(=O)(=O)CCNCc1ccc(-c2ccc3ncnc(Nc4ccc(OCc5cccc(F)c5)c(Cl)c4)c3c2)o1 [Lapatinib] (partner 2 µM) has a reported relative viability of 0.623

###

# System: CAL-12T
# PROTOCOL_DETAILS: relative viability (nuclei count vs DMSO), 5 days (fraction); higher = more cells survive
# STUDY_CONDITIONS: first compound 0.2 µM
ASSAY_METRIC: relative viability
Numbers only.

Examples with answers:
CN1CCN(CCOc2cc(OC3CCOCC3)c3c(Nc4c(Cl)ccc5c4OCO5)ncnc3c2)CC1 [Saracatinib] + Cc1nc(NC(=O)N2CCC[C@H]2C(N)=O)sc1-c1ccnc(C(C)(C)C(F)(F)F)c1 [Alpelisib] (partner 2 µM)    1.06
Cc1csc(=NC2CCCCC2)n1/N=C/c1ccc(O)c(O)c1O [MIM1] + CC(=O)c1c(C)c2cnc(Nc3ccc(N4CCNCC4)cn3)nc2n(C2CCCC2)c1=O [Palbociclib] (partner 0.5 µM)    0.526
CCNC(=O)c1noc(-c2cc(C(C)C)c(O)cc2O)c1-c1ccc(CN2CCOCC2)cc1 [Luminespib] + O=C(c1cc(Cc2n[nH]c(=O)c3ccccc23)ccc1F)N1CCN(C(=O)C2CC2)CC1 [Olaparib] (partner 8 µM)    0.182

Let us examine a further case.
The compound listed as CN1CCN(CCOc2cc(OC3CCOCC3)c3c(Nc4c(Cl)ccc5c4OCO5)ncnc3c2)CC1 [Saracatinib] + C[C@@H](Oc1cc(-c2cnn(C3CCNCC3)c2)cnc1N)c1c(Cl)ccc(F)c1Cl [Crizotinib] (partner 1 µM) has a reported relative viability of 0.522

###

# Test system: SK-MES-1
# PROTOCOL_DETAILS: relative viability (nuclei count vs DMSO), 5 days (fraction); higher = more cells survive
# STUDY_CONDITIONS: first compound 0.8 µM
ASSAY_METRIC: relative viability
One number for each entry.

Examples with answers:
Nc1cccc2c1CN(C1CCC(=O)NC1=O)C2=O (stereo unspecified) [Lenalidomide] + N=C(N)NC(=N)NCCc1ccccc1 [Phenformin] (partner 250 µM)    0.678
Nc1cccc2c1CN(C1CCC(=O)NC1=O)C2=O (stereo unspecified) [Lenalidomide] + CCNC(=O)c1noc(-c2cc(C(C)C)c(O)cc2O)c1-c1ccc(CN2CCOCC2)cc1 [Luminespib] (partner 0.01 µM)    0.891
Nc1cccc2c1CN(C1CCC(=O)NC1=O)C2=O (stereo unspecified) [Lenalidomide] + C[C@]1(O)C[C@@H](c2nc(-c3ccc4ccc(-c5ccccc5)nc4c3)c3c(N)nccn32)C1 [Linsitinib] (partner 1 µM)    1.03
Nc1cccc2c1CN(C1CCC(=O)NC1=O)C2=O (stereo unspecified) [Lenalidomide] + Nc1ncn([C@H]2C[C@H](O)[C@@H](CO)O2)c(=O)n1 [Decitabine] (partner 2 µM)    0.342
Nc1cccc2c1CN(C1CCC(=O)NC1=O)C2=O (stereo unspecified) [Lenalidomide] + CS(=O)(=O)CCNCc1ccc(-c2ccc3ncnc(Nc4ccc(OCc5cccc(F)c5)c(Cl)c4)c3c2)o1 [Lapatinib] (partner 2 µM)    0.397

Let us examine a further case.
The compound listed as Nc1cccc2c1CN(C1CCC(=O)NC1=O)C2=O (stereo unspecified) [Lenalidomide] + CC(=O)Nc1cccc(-n2c(=O)n(C3CC3)c(=O)c3c(Nc4ccc(I)cc4F)n(C)c(=O)c(C)c32)c1 [Trametinib] (partner 0.02 µM) has a reported relative viability of 0.628

###

# Test system: NCI-H2009
# PROTOCOL_DETAILS: relative viability (nuclei count vs DMSO), 5 days (fraction); higher = more cells survive
# STUDY_CONDITIONS: first compound 0.06325 µM
ASSAY_METRIC: relative viability
One number for each entry.

CCNC(=O)c1noc(-c2cc(C(C)C)c(O)cc2O)c1-c1ccc(CN2CCOCC2)cc1 [Luminespib] + Nc1nc2[nH]cc(CCc3ccc(C(=O)N[C@@H](CCC(=O)O)C(=O)O)cc3)c2c(=O)[nH]1 [Pemetrexed] (partner 0.2 µM)    0.901

Please go through the list and note relative viability for each compound.
1. CCNC(=O)c1noc(-c2cc(C(C)C)c(O)cc2O)c1-c1ccc(CN2CCOCC2)cc1 [Luminespib] + CC1(C)CCC(c2ccc(Cl)cc2)=C(CN2CCN(c3ccc(C(=O)NS(=O)(=O)c4ccc(N[C@H](CCN5CCOCC5)CSc5ccccc5)c(S(=O)(=O)C(F)(F)F)c4)cc3)CC2)C1 [Navitoclax] (partner 0.5 µM)
2. CCNC(=O)c1noc(-c2cc(C(C)C)c(O)cc2O)c1-c1ccc(CN2CCOCC2)cc1 [Luminespib] + O=C(c1cc(Cc2n[nH]c(=O)c3ccccc23)ccc1F)N1CCN(C(=O)C2CC2)CC1 [Olaparib] (partner 8 µM)
3. CCNC(=O)c1noc(-c2cc(C(C)C)c(O)cc2O)c1-c1ccc(CN2CCOCC2)cc1 [Luminespib] + COc1cc2c(Oc3ccc(NC(=O)C4(C(=O)Nc5ccc(F)cc5)CC4)cc3F)ccnc2cc1OCCCN1CCOCC1 [Foretinib] (partner 0.25 µM)

[A]
1. 0.72
2. 0.409
3. 0.298

###

# System: NCI-H460
# PROTOCOL_DETAILS: relative viability (nuclei count vs DMSO), 5 days (fraction); higher = more cells survive
# STUDY_CONDITIONS: first compound 6.325 µM
relative viability under 0.3 gets Met, anything at or over 0.3 gets Not met.

Here are 5 compounds together with their reported answers.
Cc1csc(=NC2CCCCC2)n1/N=C/c1ccc(O)c(O)c1O [MIM1] + COc1cccc2cc(-c3nc([C@H]4CC[C@H](C(=O)O)CC4)n4ncnc(N)c34)[nH]c12 [OSI-027] (partner 0.5 µM)    Not met
Cc1csc(=NC2CCCCC2)n1/N=C/c1ccc(O)c(O)c1O [MIM1] + Cc1nc(Nc2ncc(C(=O)Nc3c(C)cccc3Cl)s2)cc(N2CCN(CCO)CC2)n1 [Dasatinib] (partner 0.075 µM)    Not met
Cc1csc(=NC2CCCCC2)n1/N=C/c1ccc(O)c(O)c1O [MIM1] + CC(=O)Nc1cccc(-n2c(=O)n(C3CC3)c(=O)c3c(Nc4ccc(I)cc4F)n(C)c(=O)c(C)c32)c1 [Trametinib] (partner 0.02 µM)    Met
Cc1csc(=NC2CCCCC2)n1/N=C/c1ccc(O)c(O)c1O [MIM1] + Nc1nc2[nH]cc(CCc3ccc(C(=O)N[C@@H](CCC(=O)O)C(=O)O)cc3)c2c(=O)[nH]1 [Pemetrexed] (partner 0.2 µM)    Met
Cc1csc(=NC2CCCCC2)n1/N=C/c1ccc(O)c(O)c1O [MIM1] + NC(=O)Nc1cc(-c2cccc(F)c2)sc1C(=O)N[C@H]1CCCNC1 [AZD7762] (partner 0.2 µM)    Met

[Q] Determine whether this compound shows relative viability lower than 0.3 (ties excluded): Cc1csc(=NC2CCCCC2)n1/N=C/c1ccc(O)c(O)c1O [MIM1] + CC1(C)CCC(c2ccc(Cl)cc2)=C(CN2CCN(c3ccc(C(=O)NS(=O)(=O)c4ccc(N[C@H](CCN5CCOCC5)CSc5ccccc5)c(S(=O)(=O)C(F)(F)F)c4)cc3)CC2)C1 [Navitoclax] (partner 0.5 µM)
[A] Not met

[Q] Determine whether this compound shows relative viability lower than 0.3 (ties excluded): Cc1csc(=NC2CCCCC2)n1/N=C/c1ccc(O)c(O)c1O [MIM1] + CS(=O)(=O)N1CCN(Cc2cc3nc(-c4cccc5[nH]ncc45)nc(N4CCOCC4)c3s2)CC1 [Pictilisib] (partner 1 µM)
[A] Not met
